Target: T1, CD70 on cells (CHO-CD70, JVM-3, U266, Raji, THP-1, T cells) (human, UniProt P32970 1-193)
T1 construct: whole, on cells; also called cell-surface CD70
T1 sequence (looked up): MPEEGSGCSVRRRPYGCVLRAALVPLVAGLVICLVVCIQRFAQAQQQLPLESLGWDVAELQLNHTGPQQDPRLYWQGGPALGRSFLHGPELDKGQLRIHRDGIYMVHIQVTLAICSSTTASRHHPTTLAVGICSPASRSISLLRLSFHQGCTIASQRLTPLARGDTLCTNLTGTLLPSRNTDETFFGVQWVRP
Protocol Summary: on Raji cells
Property Label: cell binding
Give the figure by itself; no unit, no explanation.

Use these answered entries as a reference point.
>>> val("15F8 (antibody, V domains shown, alloy mouse hybridoma antibody; also called 15F8D8; 15F8D9) VH: EVQLVESGGGVVRPGGSLRLSCAASGFTFDDYGVSWVRQAPGRGLEWVSGINWNGGSTAYADSVKGRFTISRDSAKNSLYLQMDSLRAEDTALYYCAREEGSYYVWYFDIWGRGTLVTVSS VL: DIQMTQSPSSLSASVGDRVTITCRPSQSISNYLNWYQQKPGKAPKVLIYASFILQSGVPSRFGGSGSGTDFTLTISSLQPEDFATYYCQQSYSNPFTFGPGTKVDIK")
85100
>>> val("9A11 (antibody, V domains shown, alloy mouse hybridoma antibody; also called 9A11E8) VH: QVQLVESGGGVVQPGRSLRLSCAASGFTFSNYGMYWVRQAPGKGLEWVAVIWYDGSKKYYGDSVKGRFTISRDNSKNTLYLQMNSLRAEDTAVYYCARDEDTVMASFDYWGQGTLVTVSS VL: DIQLTQSPSFLSASVGDRVTITCRASQDISIYLAWYQQKPGKAPQLLIYAASTLQSGVPSRFSGSGSGTEFTLTISSLQPEDFATYSCQQLNSYPITFGGGTKVEIK")
145000

Recorded cell binding (binder 1E3 (antibody, V domains shown, alloy mouse hybridoma antibody; also called 1E3D9) VH: QLQLQESGPGLVKPSETLSLTCTVSGASITSTSYYWNWIRQPPGKGLEWIGRISYSGSTYYNPSLKSRVTISVDTSKNQFSLKLSSVTATDTAVYYCARQIRYNWNPDTFDIWGQGTMVTVSS VL: EIVMTQSPATLSVSPGERATLSCRASQSLNSNLAWYQQKPAQAPRLLIYGASTRATGIPARFSGSGSGTEFTLTISSLQSEDFAVYYCQQYDNWPLTFGGGTKVEIK ): 38800
